Each item that follows carries a reported IC50.
Target: endothelin converting enzyme (ECE) (Sus scrofa, UniProt F1SU04)
Sequence (F1SU04 entry or part of it): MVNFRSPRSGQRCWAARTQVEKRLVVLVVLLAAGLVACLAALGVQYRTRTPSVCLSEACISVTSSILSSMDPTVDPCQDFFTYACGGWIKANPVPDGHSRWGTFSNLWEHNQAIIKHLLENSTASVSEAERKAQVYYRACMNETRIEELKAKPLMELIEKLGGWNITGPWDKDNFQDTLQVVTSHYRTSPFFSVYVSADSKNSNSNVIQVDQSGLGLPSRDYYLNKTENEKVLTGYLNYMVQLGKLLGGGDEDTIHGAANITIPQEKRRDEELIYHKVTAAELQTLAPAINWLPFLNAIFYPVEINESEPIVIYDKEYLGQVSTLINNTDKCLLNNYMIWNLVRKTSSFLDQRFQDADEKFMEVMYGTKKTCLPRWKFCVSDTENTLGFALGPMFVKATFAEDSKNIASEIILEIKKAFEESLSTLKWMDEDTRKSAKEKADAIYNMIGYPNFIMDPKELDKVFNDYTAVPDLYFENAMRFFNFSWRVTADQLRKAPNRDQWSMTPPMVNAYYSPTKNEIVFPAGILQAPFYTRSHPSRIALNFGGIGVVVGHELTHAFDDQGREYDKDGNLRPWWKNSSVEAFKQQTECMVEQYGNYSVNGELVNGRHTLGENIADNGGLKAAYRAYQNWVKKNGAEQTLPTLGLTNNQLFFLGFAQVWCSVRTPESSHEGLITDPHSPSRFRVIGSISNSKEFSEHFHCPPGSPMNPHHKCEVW
Test: "ECE" assay with porcine aortic "ECE" prep, fluorogenic substrate Suc-Ile-Ile-Trp-MCA
Type: biochemical
Settings: porcine aortic endothelial cell ECE prep; 80 μM Suc-Ile-Ile-Trp-MCA; 15-20 min preincubation; overnight at 37° C.; pH 7.0; AMC fluorescence
measured.attribute: IC50 (µM)

>  <molecule>
CC[C@H](C)[C@H](NC(=O)CCOc1ccccc1)C(=O)N[C@H](C(=O)N[C@H](C=O)Cc1c[nH]c2ccccc12)[C@@H](C)CC

>  <measured.attribute>
IC50

>  <units.text>
µM

>  <assay.value>
0.06

$$$$
>  <molecule>
CC[C@H](C)[C@H](NC(=O)OCc1ccccc1)C(=O)N[C@H](C(=O)NC(Cc1ccccc1)C(=O)C(=O)C(=O)OC)[C@@H](C)CC (some centres unmarked)

>  <measured.attribute>
IC50

>  <units.text>
µM

>  <assay.value>
10

$$$$
>  <molecule>
O=CC(Cc1c[nH]c2ccccc12)NC(=O)[C@H](Cc1cccc2ccccc12)NC(=O)[C@H](Cc1ccc(Br)cc1)NC(=O)CCCCC1SCC2NC(=O)NC21 (some centres unmarked)

>  <measured.attribute>
IC50

>  <units.text>
µM

>  <assay.value>
0.002

$$$$
>  <molecule>
CC[C@H](C)[C@H](NC(=O)OCc1ccccc1)C(=O)N[C@H](C(=O)NC(Cc1c[nH]c2ccccc12)CN1C(=O)C=CC1=O)[C@@H](C)CC (some centres unmarked)

>  <measured.attribute>
IC50

>  <units.text>
µM

>  <assay.value>
1

$$$$
>  <molecule>
CC[C@H](C)[C@H](NC(=O)CCC(=O)OC)C(=O)N[C@H](C(=O)NC(Cc1c[nH]c2ccccc12)C(OC)OC)[C@@H](C)CC (some centres unmarked)

>  <measured.attribute>
IC50

>  <units.text>
µM

>  <assay.value>
8

$$$$

====

Each item that follows carries a reported IC50.
Target: endothelin converting enzyme (ECE) (Sus scrofa)
Assay: "ECE" assay with porcine aortic "ECE" prep, fluorogenic substrate Suc-Ile-Ile-Trp-MCA
Assay type: biochemical
Conditions: porcine aortic endothelial cell ECE prep; 80 μM Suc-Ile-Ile-Trp-MCA; 15-20 min preincubation; overnight at 37° C.; pH 7.0; AMC fluorescence
Non-standard residues stand in square brackets, D forms with d. Residues, ends and D or L forms follow the SMILES beside them. *: point of attachment. Cbz = O=C(OCc1ccccc1)*; Bn = c1ccc(C*)cc1

>  <molecule>
CC[C@@H](C)[C@@H](NC(=O)OCc1ccccc1)C(=O)N[C@H](C(=O)N[C@H](C=O)Cc1c[nH]c2ccccc12)[C@@H](C)CC [Example 77] (Cbz-[dI]-Ile-Trp-aldehyde)

>  <IC50, nM>
1000

$$$$
>  <molecule>
CC[C@H](C)[C@H](NC(=O)[C@H](Cc1ccccc1)NC(=O)OCc1ccccc1)C(=O)N[C@H](C=O)[C@@H](C)CC [Example 20] (Cbz-Phe-Ile-Ile-aldehyde)

>  <IC50, nM>
1100

$$$$
>  <molecule>
O=C[C@H](Cc1c[nH]c2ccccc12)NC(=O)[C@H](Cc1ccc(OCc2ccccc2)cc1)NC(=O)[C@H](Cc1c[nH]c2ccccc12)NC(=O)OCc1ccccc1 [Example 36] (Cbz-Trp-Tyr(Bn)-Trp-aldehyde)

>  <IC50, nM>
30

$$$$

====

Each item that follows carries a reported pIC50.
Molecular target: endothelin converting enzyme (ECE) (Sus scrofa, UniProt F1SU04)
Experiment: "ECE" assay with porcine aortic "ECE" prep, fluorogenic substrate Suc-Ile-Ile-Trp-MCA
Format: biochemical
Details: porcine aortic endothelial cell ECE prep; 80 μM Suc-Ile-Ile-Trp-MCA; 15-20 min preincubation; overnight at 37° C.; pH 7.0; AMC fluorescence
pIC50: −log10 of the molar value. Non-standard residues stand in square brackets, D forms with d. Residues, ends and D or L forms follow the SMILES beside them. ξ: configuration not given here. *: point of attachment. 1Nal = N[C@@H](Cc1cccc2ccccc12)C(=O)O; ξW = NC(Cc1c[nH]c2ccccc12)C(=O)O; Cbz = O=C(OCc1ccccc1)*

>  <molecule>
CC[C@H](C)[C@H](NC(=O)OCc1ccccc1)C(=O)N[C@H](C(=O)NC(C=NNC(N)=O)Cc1c[nH]c2ccccc12)[C@@H](C)CC (some centres unmarked)

>  <target>
endothelin converting enzyme (ECE) (Sus scrofa, UniProt F1SU04)

>  <pIC50>
5.00

$$$$
>  <molecule>
CC[C@H](C)[C@H](NC(=O)OCc1ccccc1)C(=O)N[C@H](C(=O)N[C@H](C=O)Cc1c[nH]c2ccccc12)C(C)C [Example 29] (Cbz-Ile-Val-Trp-aldehyde)

>  <target>
endothelin converting enzyme (ECE) (Sus scrofa, UniProt F1SU04)

>  <pIC50>
6.70

$$$$
>  <molecule>
O=CC(Cc1c[nH]c2ccccc12)NC(=O)[C@H](Cc1cccc2ccccc12)NC(=O)[C@H](Cc1c[nH]c2ccccc12)NC(=O)OCc1ccccc1 (stereo partly drawn) [Example 34] (Cbz-Trp-[1Nal]-[ξW]-aldehyde)

>  <target>
endothelin converting enzyme (ECE) (Sus scrofa, UniProt F1SU04)

>  <pIC50>
8.10

$$$$
>  <molecule>
CCC(C)C(NC(=O)C(CC(C)C)NC(=O)OCc1ccccc1)C(=O)NC(C=O)Cc1c[nH]c2ccccc12 (stereo not drawn) [Example 28] (Cbz-Leu-Ile-Trp-aldehyde; configuration not given here)

>  <target>
endothelin converting enzyme (ECE) (Sus scrofa, UniProt F1SU04)

>  <pIC50>
6.70

$$$$
>  <molecule>
CC[C@H](C)[C@H](NC(=O)CCCCc1ccccc1)C(=O)N[C@H](C(=O)NC(C=O)Cc1c[nH]c2ccccc12)[C@@H](C)CC (some centres unmarked)

>  <target>
endothelin converting enzyme (ECE) (Sus scrofa, UniProt F1SU04)

>  <pIC50>
7.30

$$$$

====

Each item that follows carries a reported IC50.
Target: endothelin converting enzyme (ECE) (Sus scrofa)
Assay: "ECE" assay with porcine aortic "ECE" prep, fluorogenic substrate Suc-Ile-Ile-Trp-MCA
Assay type: biochemical
Conditions: porcine aortic endothelial cell ECE prep; 80 μM Suc-Ile-Ile-Trp-MCA; 15-20 min preincubation; overnight at 37° C.; pH 7.0; AMC fluorescence
Non-standard residues stand in square brackets, D forms with d. Residues, ends and D or L forms follow the SMILES beside them. ξ: configuration not given here. *: point of attachment. Phe(4-Br) = N[C@@H](Cc1ccc(Br)cc1)C(=O)O; ξW = NC(Cc1c[nH]c2ccccc12)C(=O)O; Cbz = O=C(OCc1ccccc1)*; Bn = c1ccc(C*)cc1
measured.attribute: IC50 (nM)

>  <compound>
O=C(N[C@@H](Cc1ccc(Br)cc1)C(=O)N[C@@H](Cc1cccc2ccccc12)C(=O)NC(Cc1ccccc1)C(=O)C1CO1)OCc1ccccc1 (some centres unmarked)

>  <measured.attribute>
IC50

>  <units.text>
nM

>  <assay.value>
6

$$$$
>  <compound>
CC[C@H](C)[C@H](NC(=O)[C@@H](NC(=O)OCc1ccccc1)C(C)C)C(=O)NC(C=O)Cc1c[nH]c2ccccc12 (stereo partly drawn) [Example 24] (Cbz-Val-Ile-[ξW]-aldehyde)

>  <measured.attribute>
IC50

>  <units.text>
nM

>  <assay.value>
1500

$$$$
>  <compound>
O=C[C@H](Cc1ccc(Br)cc1)NC(=O)[C@H](Cc1ccc(OCc2ccccc2)cc1)NC(=O)[C@H](Cc1ccc(OCc2ccccc2)cc1)NC(=O)OCc1ccccc1 [Example 98] (Cbz-Tyr(Bn)-Tyr(Bn)-[Phe(4-Br)]-aldehyde)

>  <measured.attribute>
IC50

>  <units.text>
nM

>  <assay.value>
1000

$$$$
>  <compound>
NC(=O)NN=CC(Cc1c[nH]c2ccccc12)NC(=O)[C@H](Cc1c[nH]c2ccccc12)NC(=O)[C@H](Cc1c[nH]c2ccccc12)NC(=O)CCCCCNC(=O)CCCCC1SCC2NC(=O)NC21 (some centres unmarked)

>  <measured.attribute>
IC50

>  <units.text>
nM

>  <assay.value>
60

$$$$
>  <compound>
CC[C@H](C)[C@H](NC(=O)OCc1ccccc1)C(=O)N[C@H](C(=O)N[C@H](CNC(=O)CN1C(=O)C=CC1=O)Cc1c[nH]c2ccccc12)[C@@H](C)CC

>  <measured.attribute>
IC50

>  <units.text>
nM

>  <assay.value>
1000

$$$$
